- Assayed system: Leucine aminopeptidase (Plasmodium falciparum (isolate 3D7)) (UniProt Q8IL11)
- Sequence (Q8IL11 whole entry, looked up): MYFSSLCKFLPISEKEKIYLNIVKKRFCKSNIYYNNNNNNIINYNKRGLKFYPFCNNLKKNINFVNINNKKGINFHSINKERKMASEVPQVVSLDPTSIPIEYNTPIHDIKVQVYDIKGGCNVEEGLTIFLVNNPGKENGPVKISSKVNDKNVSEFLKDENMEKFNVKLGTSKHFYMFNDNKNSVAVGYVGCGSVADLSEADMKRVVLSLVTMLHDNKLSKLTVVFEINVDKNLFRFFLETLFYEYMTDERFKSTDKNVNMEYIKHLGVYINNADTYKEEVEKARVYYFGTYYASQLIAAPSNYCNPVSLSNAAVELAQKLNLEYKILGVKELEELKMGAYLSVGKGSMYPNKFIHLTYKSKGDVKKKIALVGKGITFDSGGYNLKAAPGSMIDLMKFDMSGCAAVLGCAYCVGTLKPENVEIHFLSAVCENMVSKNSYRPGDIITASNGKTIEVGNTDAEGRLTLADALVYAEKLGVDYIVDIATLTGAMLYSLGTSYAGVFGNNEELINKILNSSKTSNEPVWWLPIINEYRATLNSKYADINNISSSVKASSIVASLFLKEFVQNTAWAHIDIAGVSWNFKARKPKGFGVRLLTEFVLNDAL
- Protocol notes: P. falciparum M17LAP inhibitors, primary screen, biochemical, fluorogenic H-Leu-NHMec substrate, 1536-well (AID 1619);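 note: plate controls were full reaction with DMSO carrier for no effect and no enzyme background for full effect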
- Settings: recombinant M17LAP, H-Leu-NHMec fluorogenic kinetic assay; at 30 µM; active compounds read high
About 830 (0.38%) of roughly 220,000 compounds were called active. Only a sample is shown. Potency and affinity values are given separately.
Outcome measure: inhibition (%)

# Compound, Assayed system, Assay result
measured = [
    ("Cc1ccc(NC(=O)C2CCCCC2C(=O)O)cc1Cl (configuration not stated)", "Leucine aminopeptidase (Plasmodium falciparum (isolate 3D7)) (UniProt Q8IL11)", 77.4),
    ("O=c1[nH]c2ccc(S(=O)(=O)N3CCCCC3)cc2[nH]c1=O", "Leucine aminopeptidase (Plasmodium falciparum (isolate 3D7)) (UniProt Q8IL11)", 38.3),
    ("CCOC(=O)/C(C#N)=C\\N(C)C", "Leucine aminopeptidase (Plasmodium falciparum (isolate 3D7)) (UniProt Q8IL11)", 5.6),
    ("Cn1c(-c2ccc3ccccc3n2)nc2cnccc21", "Leucine aminopeptidase (Plasmodium falciparum (isolate 3D7)) (UniProt Q8IL11)", 9.33),
    ("COc1ccccc1Nc1nc2ccc(C)cc2cc1C#N", "Leucine aminopeptidase (Plasmodium falciparum (isolate 3D7)) (UniProt Q8IL11)", 5.31),
    ("O=C1CN(S(=O)(=O)c2ccc(Cl)cc2)CC(=O)N1CCc1ccccc1", "Leucine aminopeptidase (Plasmodium falciparum (isolate 3D7)) (UniProt Q8IL11)", -1.31),
    ("COC(=O)c1scc(C)c1N/N=C(\\C)c1cc(F)c(Cl)cc1F", "Leucine aminopeptidase (Plasmodium falciparum (isolate 3D7)) (UniProt Q8IL11)", -1.99),
    ("CCOC(=O)/C(C#N)=C/C=C1\\C=Cc2ccccc2N1CC", "Leucine aminopeptidase (Plasmodium falciparum (isolate 3D7)) (UniProt Q8IL11)", 1.1),
    ("Cc1ccccc1OCCn1cc(/C(N)=N/O)c2ccccc21", "Leucine aminopeptidase (Plasmodium falciparum (isolate 3D7)) (UniProt Q8IL11)", 3.74),
    ("CCc1nc2c(c(=O)c3ccccc3n2C)c(=O)n1C1CCCCCC1", "Leucine aminopeptidase (Plasmodium falciparum (isolate 3D7)) (UniProt Q8IL11)", 11),
    ("CCOC(=O)N1CCC(NC(=O)C2CCCN(S(C)(=O)=O)C2)CC1 (configuration not stated)", "Leucine aminopeptidase (Plasmodium falciparum (isolate 3D7)) (UniProt Q8IL11)", 5.41),
    ("CSc1n[nH]c(=O)n1-c1ccc(Cl)cc1", "Leucine aminopeptidase (Plasmodium falciparum (isolate 3D7)) (UniProt Q8IL11)", -4.84),
]
